Ki values recorded for UniProt:Q99572
Sequence (Q99572 whole entry): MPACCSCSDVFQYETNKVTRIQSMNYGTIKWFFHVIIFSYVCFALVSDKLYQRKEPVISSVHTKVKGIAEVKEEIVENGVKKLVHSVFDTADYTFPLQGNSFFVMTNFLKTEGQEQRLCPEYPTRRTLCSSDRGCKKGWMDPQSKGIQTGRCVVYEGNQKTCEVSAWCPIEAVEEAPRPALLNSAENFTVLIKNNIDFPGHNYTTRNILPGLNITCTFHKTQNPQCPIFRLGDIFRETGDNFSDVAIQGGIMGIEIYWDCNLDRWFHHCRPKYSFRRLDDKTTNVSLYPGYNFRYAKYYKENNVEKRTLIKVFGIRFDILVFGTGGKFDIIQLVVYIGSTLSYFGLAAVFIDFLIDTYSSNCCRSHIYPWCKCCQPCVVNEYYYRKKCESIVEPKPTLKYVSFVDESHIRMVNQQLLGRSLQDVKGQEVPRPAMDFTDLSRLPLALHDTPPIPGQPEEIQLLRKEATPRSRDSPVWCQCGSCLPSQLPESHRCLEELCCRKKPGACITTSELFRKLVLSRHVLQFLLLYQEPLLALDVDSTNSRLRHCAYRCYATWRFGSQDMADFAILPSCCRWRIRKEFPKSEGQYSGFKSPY

Compound: Cc1nc(-c2ccn[nH]2)c2c(n1)[C@@H]1CCC[C@H](C2)N1C(=O)c1ccc(Cl)c(F)c1Cl
Ki [nM]: 631
--
Compound: Cc1nc(-c2ccn[nH]2)c2c(n1)[C@H]1CCC[C@@H](C2)N1C(=O)c1cccc(C(F)(F)F)c1C
Ki [nM]: 31.6
--
Compound: Cc1nc(-c2ncccn2)c2c(n1)[C@H]1CCC[C@@H](C2)N1C(=O)c1ccc(Cl)c(F)c1Cl
Ki [nM]: 50.1
--
Compound: Cc1nc(-c2ccn[nH]2)c2c(n1)[C@H]1CCC[C@@H](C2)N1C(=O)c1cccc(Cl)c1Cl
Ki [nM]: 20
--
Compound: Cc1nc(-c2ccn[nH]2)c2c(n1)C1CCCC(C2)N1C(=O)c1cccc(Cl)c1Cl (stereo not shown)
Ki [nM]: 31.6
--
Compound: Cc1nc(-c2ccccn2)c2c(n1)[C@H]1CCC[C@@H](C2)N1C(=O)c1cccc(Cl)c1Cl
Ki [nM]: 49
--
Compound: Cc1nc(-c2ccnn2C)c2c(n1)[C@H]1CCC[C@@H](C2)N1C(=O)c1cccc(C(F)(F)F)c1Cl
Ki [nM]: 100
